SYSTEM NAME: T1, ZIKV-VLP (Native Antigen Inc.) (Zika virus)
T1 construct: also called Zika VLP; ZVLP
MEASUREMENT PROTOCOL: BLI binning on ZIKV-VLP; 1st mAb: 306-2
# reported response of 2nd mAb; entries follow

>  <BINDER>
anti-ZIKV antibody 242-3 (antibody, V domains shown, also called clone 242-3) VH: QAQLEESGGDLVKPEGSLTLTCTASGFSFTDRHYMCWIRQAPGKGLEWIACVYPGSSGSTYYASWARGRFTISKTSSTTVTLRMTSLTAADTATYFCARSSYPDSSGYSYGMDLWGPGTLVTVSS VL: DIVMTQTPASVEAAVGGTVTIKCQASQNINSNLAWYQQKPGQRPKFLMYLTSKLASGVPSRFRGSGSGTQFTLTISDLECADAATYYCQTYYDISNYGYAFGGGTEVVVK

>  <RESULT>
0.08

$$$$
>  <BINDER>
anti-ZIKV antibody 270-12 (antibody, V domains shown, also called clone 270-12) VH: QAQLEESGGDLVKPEGSLTLTCTASGFSFTDRHYMCWVRQAPGKGLEWIACVYPGSSGSTYYASWARGRFTISKTSSTTVTLRMTSLTAADTATYFCARSSYPDSSGYSYGMDLWGPGTLVTVSS VL: DIVMTQTPASVEAAVGGTVTIKCQASQDINSNLAWYQQKPGQRPKFLMYLTSKLASGVPSRFRGSGSGTQFTLTISDLECADAATYYCQTYYDISNYGYAFGGGTEVVVKG

>  <RESULT>
0.31

$$$$

// next entry
According to the records, this binder anti-ZIKV antibody 289-3 (antibody, V domains shown, also called clone 289-3; subclone 289-3) VH: QEELEESGGDLVKPGASLTLTCKASGFSFSSGAYICWVRQAPGKGPEWIACIYTGDGRTYYANWAKRRFTISSSSSTTVALEMPSLTDADTATYFCARAIAVGAGYGVGNYFTLWGPGTLVTVSS VL: DIVMTQTPSSVSAAVGGTVTINCHASENIYGYLSWYQQKPGQPPKLLIYKASTLASGVPSRFKGSGAGTQFTLTITALECADAATYYCQSYYTSSSNADGSENAFGGGTEVVVEG displays response of 2nd mAb of 0.24
